Biological target: Serine/threonine-protein kinase pim-1 (Homo sapiens, UniProt P11309); further: in the data inactive means no Kd found up to 30 µM
Sequence (P11309 whole entry): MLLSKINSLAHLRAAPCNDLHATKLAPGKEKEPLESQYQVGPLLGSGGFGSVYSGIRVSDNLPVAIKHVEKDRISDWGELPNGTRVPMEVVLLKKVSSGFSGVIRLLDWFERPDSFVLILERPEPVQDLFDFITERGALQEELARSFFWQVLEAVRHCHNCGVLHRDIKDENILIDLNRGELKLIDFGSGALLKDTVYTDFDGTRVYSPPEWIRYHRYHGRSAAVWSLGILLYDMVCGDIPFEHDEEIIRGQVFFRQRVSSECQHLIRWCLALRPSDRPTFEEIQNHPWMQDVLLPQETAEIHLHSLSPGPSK
Structures can show the parent of a compound that is named as a salt. Active and inactive are the calls of the source.
Outcomes: yes (1) for active, no (0) for inactive

COMPOUND | QUALITATIVE_LABEL
Cn1cnc2c(F)c(Nc3ccc(Br)cc3F)c(C(=O)NOCCO)cc21 | no (0)
COc1c(OCCCN2CCOCC2)ccc2c1N=C(NC(=O)c1cnc(N)nc1)N1CCN=C21 | no (0)
FC(F)(F)c1ccc(/C=C/c2nc(COc3ccc(CCCCn4ccnn4)cc3)co2)cc1 | no (0)
Cc1csc(-c2nnc(Nc3ccc(Oc4ncccc4-c4ccnc(N)n4)cc3)c3ccccc23)c1 | no (0)
Cc1nc2cc(-n3ncc(C(=O)c4cc5ccccc5[nH]4)c3N)ccc2[nH]1 | no (0)
C[C@@H](N)c1ccc(C(=O)Nc2ccnc3[nH]ccc23)cc1 | no (0)
CCn1c(C(=O)N(C2CC2)C2CC2)cc2c3c(ncn3C)c(Nc3cc(C)n(C)n3)nc21 | no (0)
C=CC(=O)N1CCC[C@H](n2c(=O)n(-c3ccc(Oc4ccccc4)cc3)c3c(N)ncnc32)C1 | no (0)
Cn1cc(-c2cnn3c(N)c(Br)c([C@@H]4CCCNC4)nc23)cn1 | yes (1)
Cc1cccc(-c2nn3c(c2-c2ccnc4ccc(C(N)=O)cc24)CCC3)n1 | no (0)
COc1cc2ncnc(Oc3cccc(NC(=O)Nc4cc(C(C)(C)C(F)(F)F)on4)c3)c2cc1OC | no (0)
Cn1cc(-c2cnc3ccc4ccc(CS(=O)(=O)NCc5ccccn5)cc4c(=O)c3c2)cn1 | no (0)
COCC(=O)NC/C=C/c1ccc2ncnc(Nc3ccc(Oc4ccc(C)nc4)c(C)c3)c2c1 | no (0)
C=CC(=O)Nc1cc2c(Nc3ccc(F)c(Cl)c3)ncnc2cc1C#CC(C)(C)N1CCN(C)CC1 [AV-412 FREE BASE] | no (0)
CC(C)c1cc(CNc2nc(Nc3cc(C4CC4)[nH]n3)cc(N3CCN(C)CC3)n2)on1 | no (0)
CCNC(=O)C#Cc1ccc2c(c1)NC(=O)/C2=C(\Nc1ccc(CN(C)C)cc1)c1ccccc1 | no (0)
CN1C/C=C/CCOc2cccc(c2)-c2ccnc(n2)Nc2cccc(c2)C1 | no (0)
COCc1c(-c2ccc(NC(=O)Nc3cc(C(F)(F)F)ccc3F)c(F)c2)c2c(N)ncnn2c1CN1CCOCC1 | no (0)
O=c1[nH]ccc2cc(OC3CCNCC3)ccc12 [SAR-407899 FREE BASE] | no (0)
CN(C[C@@H]1COCCO1)S(=O)(=O)Nc1ccc2ccc3ncc(-c4cnn(C)c4)cc3c(=O)c2c1 | no (0)
CN1CCN(CCOc2cc(OC3CCOCC3)c3c(Nc4c(Cl)ccc5c4OCO5)ncnc3c2)CC1 | no (0)
CO[C@H]1C[C@@H]2CC[C@@H](C)[C@@](O)(O2)C(=O)C(=O)N2CCCC[C@H]2C(=O)O[C@H]([C@H](C)C[C@@H]2CC[C@@H](OP(C)(C)=O)[C@H](OC)C2)CC(=O)[C@H](C)/C=C(\C)[C@@H](O)[C@@H](OC)C(=O)[C@H](C)C[C@H](C)/C=C/C=C/C=C/1C | no (0)
Cn1ncc(Cl)c1-c1cc(C(=O)N[C@H](CN)Cc2ccc(F)c(F)c2)oc1Cl | no (0)
COc1cc2c(Nc3ccc(Cl)c(Cl)c3F)ncnc2cc1OC[C@@H]1C[C@@H]2CN(C)C[C@@H]2C1 | no (0)
CCS(=O)(=O)N1CCN(c2ccc(Nc3ncc(C(N)=O)c(NC4CC4)n3)cc2)CC1 [Cerdulatinib Hydrochloride] | no (0)
CO[C@H]1C[C@@H]2CC[C@@H](C)[C@@](O)(O2)C(=O)C(=O)N2CCCC[C@H]2C(=O)O[C@H]([C@H](C)C[C@@H]2CC[C@@H](O)[C@H](OC)C2)CC(=O)[C@H](C)/C=C(\C)[C@@H](O)[C@@H](OC)C(=O)[C@H](C)C[C@H](C)/C=C/C=C/C=C/1C | no (0)
Cc1cc(C(=O)NOCCO)c(Nc2ccc(I)cc2F)n(C)c1=O | no (0)
Cc1cc(Nc2ncc(Cl)c(Nc3ccccc3S(=O)(=O)C(C)C)n2)c(OC(C)C)cc1C1CCNCC1 | no (0)
Nc1ncnc2c1c(-c1cccc(OCc3ccccc3)c1)cn2[C@H]1C[C@@H](CN2CCC2)C1 | no (0)
O=C(Nc1c[nH]nc1-c1nc2cc(CN3CCOCC3)ccc2[nH]1)NC1CC1 | no (0)
